tgt: T1, CD73 (as used in the affinity measurements) (UniProt P21589 27-549, limits assumed)
T1 construct: also called CD73 antigen; 5'-nucleotidase
T1 sequence (looked up): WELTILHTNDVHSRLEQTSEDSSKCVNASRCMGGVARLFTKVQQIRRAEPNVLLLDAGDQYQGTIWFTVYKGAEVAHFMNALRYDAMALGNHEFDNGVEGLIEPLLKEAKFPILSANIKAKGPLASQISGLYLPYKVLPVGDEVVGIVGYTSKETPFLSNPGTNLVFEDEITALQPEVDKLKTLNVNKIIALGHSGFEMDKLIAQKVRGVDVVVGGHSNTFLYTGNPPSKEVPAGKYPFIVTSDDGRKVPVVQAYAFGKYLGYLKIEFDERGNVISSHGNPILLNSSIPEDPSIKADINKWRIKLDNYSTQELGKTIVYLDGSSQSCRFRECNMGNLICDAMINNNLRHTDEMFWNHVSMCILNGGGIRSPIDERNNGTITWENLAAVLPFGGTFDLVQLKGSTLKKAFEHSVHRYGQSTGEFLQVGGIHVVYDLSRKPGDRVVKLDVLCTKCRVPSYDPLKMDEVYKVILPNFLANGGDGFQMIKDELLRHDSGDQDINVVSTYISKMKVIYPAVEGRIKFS
method: affinity measurement, method not stated
measurementLabel: pKd
Schema: pKd number; meaning minus log10 of the concentration expressed in molar units.

Q. Returns the measured pKd for the input binder. Input: CPX-004 (humanized 1E9 antibody, BAP094-hum05) (antibody, human IgG1, V domains shown) VH: EVQLVQSGAEVKKPGATVKISCKVSGYTFTSYWITWIRQPPGKGLEWIGDIYPGSGNTNYNEKFKTRVTISADKSISTAYLQWSSLKASDTAMYYCAKEGGLTTEDYALDYWGQGTLVTVSS VL: DVVMTQSPLSLPVTLGQPASISCRASKNVSTSGYSYMHWYQQKPGQAPRLLIYLASNLESGIPPRFSGSGYGTDFTLTINNIESEDAAYYFCQHSRELPFTFGQGTKVEIK
A. 7.75

Q. Returns the measured pKd for the input binder. Input: CPX-006 (humanized 1E9 antibody; BAP094-hum06-HC with BAP094-hum07-LC) (antibody, V domains shown, also called anti-CD73 (CPX-006)) VH: QVQLVQSGAEVEKPGASVKVSCKASGYTFTSYWITWVRQAPGQGLEWMGDIYPGSGNTNYNEKFKTRVTITADKSTSTAYMELSSLRSEDTAVYYCAKEGGLTTEDYALDYWGQGTLVTVSS VL: EIVLTQSPATLSLSPGERATLSCRASKNVSTSGYSYMHWYQQKPGQAPRLLIYLASNLESGIPPRFSGSGYGTDFTLTINNIESEDAAYYFCQHSRELPFTFGQGTKVEIK
A. 8.15

Q. Returns the measured pKd for the input binder. Input: CPX-007 (humanized 1E9 antibody; BAP094-hum03-HC with BAP094-hum07-LC) (antibody, human IgG1, V domains shown) VH: QVQLVQSGAEVKKPGASVKVSCKASGYTFTSYWITWVRQARGQRLEWIGDIYPGSGNTNYNEKFKTRVTITADKSTSTAYMELSSLRSEDTAVYYCAKEGGLTTEDYALDYWGQGTLVTVSS VL: EIVLTQSPATLSLSPGERATLSCRASKNVSTSGYSYMHWYQQKPGQAPRLLIYLASNLESGIPPRFSGSGYGTDFTLTINNIESEDAAYYFCQHSRELPFTFGQGTKVEIK
A. 7.80

Q. Returns the measured pKd for the input binder. Input: CPX-003 (humanized 1E9 antibody, BAP094-hum03) (antibody, human IgG1, V domains shown) VH: QVQLVQSGAEVKKPGASVKVSCKASGYTFTSYWITWVRQARGQRLEWIGDIYPGSGNTNYNEKFKTRVTITADKSTSTAYMELSSLRSEDTAVYYCAKEGGLTTEDYALDYWGQGTLVTVSS VL: EIVLTQSPDFQSVTPKEKVTITCRASKNVSTSGYSYMHWYQQKPGKAPKLLIYLASNLESGIPPRFSGSGYGTDFTLTINNIESEDAAYYFCQHSRELPFTFGQGTKVEI
A. 7.71

Q. Returns the measured pKd for the input binder. Input: CPX-005 (humanized 1E9 antibody, BAP094-hum06) (antibody, human IgG1, V domains shown) VH: QVQLVQSGAEVEKPGASVKVSCKASGYTFTSYWITWVRQAPGQGLEWMGDIYPGSGNTNYNEKFKTRVTITADKSTSTAYMELSSLRSEDTAVYYCAKEGGLTTEDYALDYWGQGTLVTVSS VL: AIQLTQSPSSLSASVGDRVTITCRASKNVSTSGYSYMHWYQQKPGQAPRLLIYLASNLESGVPSRFSGSGSGTDFTFTISSLEAEDAATYYCQHSRELPFTFGQGTKVEIK
A. 8.16

Q. Returns the measured pKd for the input binder. Input: CPX-002 (chimeric 1E9 antibody, clone BAP094-01) (antibody, human IgG1, V domains shown, also called chimeric antibody) VH: QVQLQQPGAELVKPGASVKMSCKASGYTFTSYWITWVKQRPGQGLEWIGDIYPGSGNTNYNEKFKTKATLTVDTSSSTAYMQLSSLTSEDSAVYYCAKEGGLTTEDYALDYWGQGTLVTVSS VL: DIVLTQSPASLAVSLGQRATISCRASKNVSTSGYSYMHWYQQKPGQPPKLLIYLASNLESGVPTRFSGSGSGTDFTLNIHPVEEEDAATYYCQHSRELPFTFGSGTKLEIK
A. 8.03
